Test system: IGROV1 ovarian
Experiment: NCI-60 one-dose screen, 48 h (100 = growth as untreated, 0 = no growth, -100 = all killed)
Conditions: 10 µM unless noted
This is part of a sample that, as a whole, favours compounds with a hit. Of some 83,000 tested, about 20% had one in any assay.
Property Name: growth (%)
Give the number; % is assumed, so skip it.

Give recorded growth with IGROV1 ovarian for the following molecule: `NC(=O)c1cccc(-n2ccc3cc(NC(=O)Nc4cc(C(F)(F)F)cc(C(F)(F)F)c4)ccc32)n1`
29.8

Find the measured growth: item `COc1cc(-c2nc3sccn3c2-c2ccnc(NCCNS(=O)(=O)c3ccc(F)cc3)n2)ccc1F` , target or system IGROV1 ovarian.
3.95

# get_value(readout= growth, system= IGROV1 ovarian) for `O=C1NC(=O)C(=Cc2cn(Cc3ccccn3)c3ccccc23)C(=O)N1`
31.6

Could you share what growth was measured for `COc1ccc(/C(C)=N/NC(=O)CSc2nc3ccccc3c(=O)n2Cc2ccc(S(N)(=O)=O)cc2)c(OC)c1` , tested on IGROV1 ovarian?
104

What measured growth is associated with `COc1cccc(CNCCN2C(=O)c3ccc4c5c(ccc(c35)C2=O)C(=O)N(CCNCc2cccc(OC)c2)C4=O)c1` on IGROV1 ovarian?
75.9

Lab request: please report growth under test system IGROV1 ovarian for `O=C1Nc2c(ccc(Cl)c2Cl)/C1=C/c1ccc(F)cc1`
42.8

What is its growth for IGROV1 ovarian? Entry: `COc1cc2nc(-c3ccc(C(F)(F)F)cc3)cc(OCCCN3CCC(O)CC3)c2cc1OC`
27.2

So what growth did NC(=O)c1ncn(C2OC(CO)C(O)C2O)n1 (stereo not drawn) get with IGROV1 ovarian?
4.17

IGROV1 ovarian / growth / `COc1cc2nc(-c3ccc(C(F)(F)F)cc3)cc(OCCN3CCC(O)CC3)c2cc1OC` : value?
42.1

Lab note: need growth for `NC(=O)c1ccc[n+](CC(=O)N2CCN(c3cc4c(cc3F)c(=O)c(C(=O)O)cn4C3CC3)CC2)c1` on IGROV1 ovarian, anyone have it?
99.4

Request body: readout growth, system IGROV1 ovarian, query CC1=NNC(=O)C1CCC(=O)N/N=C(\C)c1ccc2ccccc2c1 (stereo not drawn) . Return the value.
92.6

GET /values?readout=growth&system=IGROV1 ovarian&item= `CCCCCCCCCCN=C(N)N=C(N)N`
12.1

Recorded growth for `CC(=O)c1c[nH]c2ccc(-c3ccnc(Nc4ccc(NC(=O)C5CCCC5)c(CN5CCOCC5)c4)n3)cc12` with IGROV1 ovarian, please?
-14.8

growth of COc1ccccc1C(C[N+](=O)[O-])c1c(-c2ccccc2)[nH]c2cc(C)ccc12 (stereo not drawn) on IGROV1 ovarian?
53.6

Recorded growth for `Nc1nc(SN=Nc2ccc(S(N)(=O)=O)cc2)c2[nH]cnc2n1` with IGROV1 ovarian, please?
39.8

Notebook entry, IGROV1 ovarian assay: growth of `O=C(O)c1cn(C2CC2)c2cc(N3CCN(C(=O)C[n+]4cccc5ccccc54)CC3)c(F)cc2c1=O` = ?
92.7

Value wanted: growth (IGROV1 ovarian) of entry `OC1(c2ccc(Cl)c(C(F)(F)F)c2)CCN(CCCC(c2ccc(F)cc2)c2ccc(F)cc2)CC1`
-57.2

Recorded growth for `CC(C)[N+](C)(CCOC(COc1ccccc1)COc1ccccc1)C(C)C` with IGROV1 ovarian, please?
76.6
